# SYSTEM UNDER TEST: UniProtKB P17752
# ASSAY METHOD TEXT: Biochemical in vitro assay using fluorescence readout (TPH1 inhibition)
# REPORTED CONDITIONS: human TPH1, fluorescence readout
REPORTED METRIC: pIC50
On this scale, pIC50 is minus log10 of a concentration expressed in M (mol/L).

Cc1nn2c3c(nc2s1)CCN(C(=O)COc1ccc(NS(C)(=O)=O)nc1Cl)C3c1cc(F)c(C)cc1F (stereo not shown)    7.74

Task: So what does the record say about pIC50 for Cc1nn(C)c(C)c1C1c2c(nc3sccn23)CCN1C(=O)COc1ccc(C(F)(F)F)cc1Cl (stereo not shown) ?
Output: 7.32

Task: Given the entry CCc1ncccc1OCC(=O)N1CCc2nc3sc(C)nn3c2C1c1ccc(C2CC2)cc1F (stereo not shown) , report its measured pIC50.
Output: 6.34

Task: Reported pIC50 for Cc1ccc(C2c3c(nc4sc(C)nn34)CCN2C(=O)COc2ccc(C(=O)N(C)C3CC3)nc2Cl)c(F)c1 (stereo not shown) : what is it?
Output: 7.82

* * *

# SYSTEM UNDER TEST: UniProt:P17752
# ASSAY METHOD TEXT: Biochemical in vitro assay using fluorescence readout (TPH1 inhibition)
# REPORTED CONDITIONS: human TPH1, fluorescence readout
REPORTED METRIC: pIC50
Reminder that pIC50 is minus the log10 of a molar concentration.

Illustrative cases are given below, each with its answer.
CCc1nc(N2CCCS2(=O)=O)ccc1OCC(=O)N1CCc2nc3sc(CF)nn3c2C1c1sc(C)nc1C (stereo not shown)    8.10
Cc1cnc(C2c3c(nc4sc(C)nn34)CCN2C(=O)COc2ccc(C#N)cc2Cl)c(F)c1 (stereo not shown)    7.31
Cc1nn2c3c(nc2s1)CCN(C(=O)COc1ccc(C(=O)N(C)C)nc1Cl)C3c1cnc(-c2ccccc2)s1 (stereo not shown)    7.85
CNC(=O)c1ccc(OCC(=O)N2CCc3nc4sccn4c3C2c2sccc2F)c(Cl)n1 (stereo not shown)    8.05
Cc1nn2c3c(nc2s1)CCN(C(=O)COc1ccc(C#N)nc1Cl)C3c1ccc(Cl)nc1F (stereo not shown)    7.46
Cc1cnc(C2c3c(nc4sc(C)nn34)CCN2C(=O)COc2ccc(C(F)(F)F)cc2Cl)c(F)c1 (stereo not shown)    7.85

Here is another compound to look at.
Task: Using the record for Cc1nc(C)c(C2c3c(nc4sc(C)nn34)CCN2C(=O)COc2ccc(N3CCCS3(=O)=O)nc2Cl)s1 (stereo not shown) , report its pIC50.
Output: 8.30

* * *

# SYSTEM UNDER TEST: human TPH1 (Homo sapiens (Human), UniProt P17752)
# Sequence (P17752 whole entry): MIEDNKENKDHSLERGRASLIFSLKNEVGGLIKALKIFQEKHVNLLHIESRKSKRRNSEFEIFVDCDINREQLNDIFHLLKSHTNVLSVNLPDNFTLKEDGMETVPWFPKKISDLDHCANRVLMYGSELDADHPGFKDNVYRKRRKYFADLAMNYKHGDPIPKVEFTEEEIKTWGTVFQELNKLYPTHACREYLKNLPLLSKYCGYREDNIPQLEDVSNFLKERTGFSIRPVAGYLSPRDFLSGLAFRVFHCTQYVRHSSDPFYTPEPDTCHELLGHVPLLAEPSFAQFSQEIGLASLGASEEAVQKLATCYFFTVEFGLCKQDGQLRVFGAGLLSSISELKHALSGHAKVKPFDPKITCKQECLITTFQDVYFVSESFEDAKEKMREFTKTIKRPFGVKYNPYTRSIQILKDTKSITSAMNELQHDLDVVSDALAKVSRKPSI
# ASSAY METHOD TEXT: Biochemical in vitro assay using fluorescence readout (TPH1 inhibition)
# REPORTED CONDITIONS: human TPH1, fluorescence readout
Param label: returns Criterion met when IC50 < 9 nM, returns Criterion not met otherwise, including exact equality.

Look over these answered cases.
Cc1nn2c3c(nc2s1)CCN(C(=O)COc1ccc(N2CCOCC2)nc1Cl)C3c1ncc(C2CC2)cc1F (stereo not drawn)    Criterion met
CCc1cc(F)ccc1OCC(=O)N1CCc2nc3sccn3c2C1c1ccc(OC)cc1F (stereo not drawn)    Criterion met
Cc1nn2c3c(nc2s1)CCN(C(=O)COc1ccc(N2CCOCC2)nc1Cl)C3c1cnc(OC(F)F)cc1C (stereo not drawn)    Criterion met
CCc1nc(C(F)F)ccc1OCC(=O)N1CCc2nc3sc(C)nn3c2C1c1ccc(Cl)cc1F (stereo not drawn)    Criterion not met
Cc1nn2c3c(nc2s1)CCN(C(=O)COc1ccc(C(F)(F)F)nc1)C3c1ccc(C2CC2)cc1F (stereo not drawn)    Criterion not met
CCc1nc(Cl)ncc1OCC(=O)N1CCc2nc3sc(C)nn3c2[C@@H]1c1ncc(C)cc1F    Criterion not met

Task: Given the entry Cc1nn2c3c(nc2s1)CCN(C(=O)COc1cccnc1F)C3c1ccc(C2CC2)cc1F (stereo not drawn) , would its reported IC50 be below 9 nM?
Output: Criterion not met

Task: hey, is IC50 for Cc1nn2c3c(nc2s1)CCN(C(=O)COc1ccc(N2CCOCC2)nc1Cl)C3c1cnc(N2CCOCC2)s1 (stereo not drawn) lower than 9 nM or not?
Output: Criterion not met

Task: Given CCn1nc(C(=O)N(C)C)cc1OCC(=O)N1CCc2nc3sc(C)nn3c2C1c1sccc1F (stereo not drawn) , is recorded IC50 strictly lower than 9 nM?
Output: Criterion not met

Task: Lab log: compare recorded IC50 with 9 nM; is it strictly lower for Cc1nn2c3c(nc2s1)CCN(C(=O)C(C)(C)Oc1ccc(NS(C)(=O)=O)nc1Cl)C3c1ccc(Cl)cc1F (stereo not drawn) ?
Output: Criterion not met

Task: State whether 9 nM exceeds IC50 recorded for Cc1nn2c3c(nc2s1)CCN(C(=O)COc1ccc(C(=O)N(C)C)nc1Cl)C3c1ncc(C2CC2)cc1F (stereo not drawn) .
Output: Criterion met

Task: Quick check: does Cc1nn2c3c(nc2s1)CCN(C(=O)COc1ccc(NS(C)(=O)=O)nc1Cl)C3c1cncs1 (stereo not drawn) have IC50 under 9 nM?
Output: Criterion not met
